Experiment: protein stability index of a GFP-peptide fusion (GPS, HEK-293T) (PSI 1-6); higher = more stable;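 also: 24-mer peptide tiles fused after GFP, lentivirally expressed, FACS-sorted into six equal bins by GFP/DsRed ratio, decoded by Illumina sequencing, PSI is the read-weighted mean bin number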
Stated Conditions: treatment: MLN4924 1 uM, 8 h; c terminus: a fixed tail appended
Property Measured: protein stability index
Just the number, please, no unit attached.

# count of solved cases: 3
INSERT INTO assay_data (chain, readout_number) VALUES
  ('ARLKKVLIVGAPIWFRVPYSIISL [PTPN9]', 2.58),
  ('SPAAPYFLGSSFSPVRCGGPGDAS [WEE1]', 3.17),
  ('EGNSMRCGRKLAKDGEYCWRWTGF [GMCL1]', 2.11);

Notebook: GPRDPQLVPILIEAARNGKMKFVI [NSDHL] , protein stability index read as 2.38

Notebook: YKMDHRRRGIALIFNHERFFWHLT [CASP6] , protein stability index read as 2.2

Notebook: QVEALAAAGVDHVILAVSYMSQVL [GMPPB] , protein stability index read as 2.48

###

Property: protein stability index; scope: individual sequences
Experiment: protein stability index of a GFP-peptide fusion (GPS, HEK-293T) (PSI 1-6); higher = more stable
Stated Conditions: treatment: DMSO; c terminus: a fixed tail appended
Just the number, please, no unit attached.

# count of solved cases: 5
INSERT INTO measurements (chain, readout_number) VALUES
  ('VRKEDMTYAVRKLDNTKFRSHEGE [SRSF1]', 4.32),
  ('DGKPFPELVLEQQLDREAQARHQL [PCDHGC5]', 4.92),
  ('TFFLRTDAETPPRFTRTPVDQTGV [PTPRD]', 3.42),
  ('NIPMETEETHLEETTESQQNGEEG [SMARCE1]', 5.39),
  ('IYVVGGFDGTAHLSSVEAYNIRTD [KLHL12]', 3.08);

# input for lookup
Notebook: HTAKCEKLQKEKEELERRFEDEVK [MTUS2] , protein stability index read as 5.57

###

Experiment: protein stability index of a GFP-peptide fusion (GPS, HEK-293T) (PSI 1-6); higher = more stable
Stated Conditions: treatment: DMSO; c terminus: a fixed tail appended
Label rule met when protein stability index is at or above 3; otherwise label rule not met.

INSERT INTO assay_data (chain, class_assignment) VALUES
  ('PARDGVEASAEGPRAVFVLLEERR [TFE3]', 'rule met'),
  ('PNDEVHPLLGVKGDGKSKKKQAGR [RBBP5]', 'rule met'),
  ('SPREGEELKPEDKDPRDPEESKEP [GNAS]', 'rule met'),
  ('GEKPFKCHLCNYACRRRDALTGHL [IKZF1]', 'rule not met'),
  ('IYLINQKWFGRKRTLSAFLCLGGL [SLC22A15]', 'rule met');

Now examine the next entry.
IN: Given MDPGWGQRDVGWAALLILFAASLL [C2CD2L] , state whether its protein stability index is at least 3.
OUT: rule not met

###

Experiment: protein stability index of a GFP-peptide fusion (GPS, HEK-293T) (PSI 1-6); higher = more stable
Stated Conditions: treatment: DMSO; c terminus: a fixed tail appended
Property: protein stability index; scope: individual sequences
Just the number, please, no unit attached.

INSERT INTO measurements (chain, property_measured, readout_number) VALUES
  ('ESPIPEDKDRRFVFSYFLATDMIS [EFHC1]', 'protein stability index', 2.33),
  ('ERPRMNANSLLASPTGLSPYLRFG [CRY1]', 'protein stability index', 2.89),
  ('RYTGTTPSPPPGSHYTSPSENMWN [CARM1]', 'protein stability index', 3.48),
  ('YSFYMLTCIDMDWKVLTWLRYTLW [HACD3]', 'protein stability index', 2.63);

# input for lookup
Notebook: LIVGAPIWFRVPYSIISLLLKDKV [PTPN9] , protein stability index read as 2.59

###

Experiment: protein stability index of a GFP-peptide fusion (GPS, HEK-293T) (PSI 1-6); higher = more stable
Stated Conditions: treatment: MLN4924 1 uM, 8 h; c terminus: a fixed tail appended
Property Measured: protein stability index
Just the number, please, no unit attached.

INSERT INTO measurements (chain, property_measured, readout_number) VALUES
  ('SNRHGHTCLMISCYKGHKEIAQYL [FEM1C]', 'protein stability index', 2.43);

Notebook: IQPSSEGLGPTSEPFPSSDDSPRS [SPAG8] , protein stability index read as 5.35

Notebook: ERIEARLATLEGDDPSLRKTHSSP [PSD2] , protein stability index read as 5.09

Notebook: ADGFGDNPFYHCLVAEILPAPGKL [SAT2] , protein stability index read as 2.37

Notebook: ETVQTWIELLTGETWNPFKLQYQL [GOLPH3L] , protein stability index read as 2.74

Notebook: NPYHQPYISRKYFATRPGAIETAM [TPRG1] , protein stability index read as 2.52

Notebook: LQPEQQLNIYKTLKTHLIEKGILQ [CDS1] , protein stability index read as 2.58

Notebook: ELKLEQQEAAERESKLLRDLSAAN [LRRC45] , protein stability index read as 4.77

Notebook: ETKKVLGLQDTITAELVVIEDAAE [PALM] , protein stability index read as 4.78

Notebook: ILAAACESETRKAAKRMRLEIYQS [NOL4L] , protein stability index read as 2.54

Notebook: EVMKCIVEVISDTLSKPSPMPVSQ [CHGA] , protein stability index read as 2.48

Notebook: ESVVKSEDFSLPAYMDRRDHPLPE [COX4I1] , protein stability index read as 4.82

Notebook: ATNQCTIDKNRRKSCQACRLRKCY [ESR2] , protein stability index read as 3.47

Notebook: SSKAHTSRFISANLPCNKFKNRLV [PTPRD] , protein stability index read as 2.59

Notebook: VHSSPVSSPSVSGPRRLVSCLSSQ [SPACA3] , protein stability index read as 3.54

Notebook: IPPKSVNPTCMCCQATSSTACHIQ [FAM219A] , protein stability index read as 3.82

Notebook: MSELFLHTPSDTGVSFQAISSMAD [PKD2L1] , protein stability index read as 3.61

Notebook: IGCKKPVSASGKEMDWAQMACHRC [SMG5] , protein stability index read as 3.48

###

Experiment: protein stability index of a GFP-peptide fusion (GPS, HEK-293T) (PSI 1-6); higher = more stable
Stated Conditions: treatment: MLN4924 1 uM, 8 h; c terminus: a fixed tail appended
Just so you know, the groups by protein stability index go like this: bin 0: < 3; bin 1: ≥ 3 and < 4; bin 2: ≥ 4

As a guide, the following entries are already answered.
INSERT INTO results (chain, class_assignment) VALUES
  ('LDDIIRHDFFLQGFTPDRLSSSCC [PLK2]', 'bin 0'),
  ('QMMSATAQNREPESVEQLESRIVE [SNX8]', 'bin 2'),
  ('AGTSSHGCWAWPLAGLSVGRSSLT [PXN]', 'bin 0'),
  ('GDGVPPRSLQDGTREGFGHSTSLK [LCOR]', 'bin 2'),
  ('KLATEAGVEVIVRISHTLYDLDKI [CRY1]', 'bin 1'),
  ('FSSITDSTMSLNIITVTLNMEKYN [DVL3]', 'bin 0');

IN: Exam item: assign SSSPPGTPSPADAKAPPTACYAGA [CEBPB] to the correct category.
OUT: bin 2

IN: Exam item: assign TPGLGVVAVLLLFLVVREPPRGAV [SPNS1] to the correct category.
OUT: bin 1

IN: Exam item: assign QEAMKRLRGAKAFRLPGLSRRERE [FCHO1] to the correct category.
OUT: bin 2

IN: Exam item: assign ADSGADPKGEPGSKQSPPMASSPI [FBF1] to the correct category.
OUT: bin 2

IN: Exam item: assign VRELVDKATNVVMNYSEIESKVRE [CLINT1] to the correct category.
OUT: bin 1

IN: Exam item: assign GSDKCVFLKNTEVSSMECEKNLYW [CD69] to the correct category.
OUT: bin 1

IN: Exam item: assign KFPPEEELQREWLGNREALIQFLE [CPN1] to the correct category.
OUT: bin 1

IN: Exam item: assign AAVVTSPPPTTAPHKERYFDRVDE [ADD1] to the correct category.
OUT: bin 2

IN: Exam item: assign PPRPPPRGTPPRRHSFRKHLYLLR [N4BP2L1] to the correct category.
OUT: bin 1

IN: Exam item: assign PQLGLDGPGEPDVRDGFSATFEKI [PSD2] to the correct category.
OUT: bin 2

###

Property: protein stability index; scope: individual sequences
Experiment: protein stability index of a GFP-peptide fusion (GPS, HEK-293T) (PSI 1-6); higher = more stable
Stated Conditions: treatment: MLN4924 1 uM, 8 h; c terminus: a fixed tail appended
Just the number, please, no unit attached.

INSERT INTO results (chain, property_measured, readout_number) VALUES
  ('ALPSSAPSGPPPPPPSVLGVGPVA [WASL]', 'protein stability index', 4.82);

Notebook: NILLKNLVTIARKASLWQFLSSEK [TRIM43] , protein stability index read as 2.13

Notebook: SAKNTSHPGSGTKVQFNLQFTKPN [SASS6] , protein stability index read as 3.61

Notebook: PRPNRLFLRQLRASHLGNELEGTE [C2CD2L] , protein stability index read as 4.05

Notebook: CPTLIYRETYPRTPYVRWNYVAKN [SOAT2] , protein stability index read as 2.36

Notebook: DLLAYGAKAELPKYKSFNRTAMPY [MYOZ1] , protein stability index read as 2.29

Notebook: AFPGASHESSGNPPLRVIVKDALF [RHOBTB3] , protein stability index read as 3.25

Notebook: LDFTHPKARDWFQGHLRRLRSRYS [MYORG] , protein stability index read as 2.97

Notebook: SMCEHHLVPFVGKVHIGYLPNKQV [GCH1] , protein stability index read as 2.29

Notebook: LGVGLLTFASLETVGIYFGLVYRI [TMEM40] , protein stability index read as 3.29

Notebook: KLFAHSSDLLSEFKKHDADKVGLI [PPEF2] , protein stability index read as 2.68

Notebook: SSASEGDEDLRRQMQDDEQKTRLL [PALM] , protein stability index read as 5.49

Notebook: ALKAAKREQEKKPKKEANQAPKSK [LRRC59] , protein stability index read as 5.28
